- SYSTEM_NAME: D-2 receptor (Rattus norvegicus, UniProt P61169)
- Construct: the striatum from their cortex was prepared; from tissue; host or cells: striatum membranes of Hannover Wistar rats
- Sequence (P61169 whole entry): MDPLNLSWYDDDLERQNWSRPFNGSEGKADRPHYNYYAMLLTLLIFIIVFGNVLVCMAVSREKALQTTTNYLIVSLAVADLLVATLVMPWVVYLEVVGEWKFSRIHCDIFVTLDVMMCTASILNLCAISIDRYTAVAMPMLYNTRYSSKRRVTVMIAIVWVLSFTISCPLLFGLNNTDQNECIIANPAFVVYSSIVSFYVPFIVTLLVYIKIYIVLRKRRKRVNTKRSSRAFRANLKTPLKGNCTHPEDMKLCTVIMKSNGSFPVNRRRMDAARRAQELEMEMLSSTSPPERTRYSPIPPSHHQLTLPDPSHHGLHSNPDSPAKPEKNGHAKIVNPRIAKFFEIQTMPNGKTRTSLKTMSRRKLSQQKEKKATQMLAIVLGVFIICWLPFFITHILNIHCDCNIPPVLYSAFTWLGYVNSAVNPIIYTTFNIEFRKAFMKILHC
- TEST_PROTOCOL: D-2 receptor binding (3H-spiroperidol)
- Design: species or system Hannover Wistar rats
- TEST_CONDITIONS: rat striatum, 0.5 nmole 3H-spiroperidol, 37° C., 15 min, pH 7.4
MEASURED_PARAMETER: IC50 (nM)
Just the number in nM, nothing appended.

Prompt: Provide the documented IC50 with D-2 receptor (Rattus norvegicus, UniProt P61169) as the system for `CO[C@]12C[C@@H](COC(=O)c3cncc(Br)c3)CN(C)[C@@H]1Cc1cn(C)c3cccc2c13`
Completion: 71.4

Prompt: Provide the documented IC50 with D-2 receptor (Rattus norvegicus, UniProt P61169) as the system for `CO[C@]12C[C@@H](COC(=O)c3cncc(Br)c3)CN(C)[C@@H]1Cc1c(Cl)n(C)c3cccc2c13`
Completion: 877

====

- SYSTEM_NAME: α2-adrenergic receptor (Rattus norvegicus)
- Sequence (P22909 1-465): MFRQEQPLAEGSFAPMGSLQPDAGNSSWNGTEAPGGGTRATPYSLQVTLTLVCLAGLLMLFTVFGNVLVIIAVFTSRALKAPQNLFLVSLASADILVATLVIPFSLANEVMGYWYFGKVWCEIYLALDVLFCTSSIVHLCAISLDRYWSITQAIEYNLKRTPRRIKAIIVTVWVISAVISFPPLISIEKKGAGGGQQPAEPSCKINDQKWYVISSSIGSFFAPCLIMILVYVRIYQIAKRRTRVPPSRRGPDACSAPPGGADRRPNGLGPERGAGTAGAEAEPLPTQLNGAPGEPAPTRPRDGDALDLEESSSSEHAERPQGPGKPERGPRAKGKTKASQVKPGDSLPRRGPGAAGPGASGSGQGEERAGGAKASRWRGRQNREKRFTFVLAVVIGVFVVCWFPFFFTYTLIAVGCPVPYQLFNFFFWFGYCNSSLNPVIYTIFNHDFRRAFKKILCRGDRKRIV
MEASURED_PARAMETER: IC50 (nM)
Just the number in nM, nothing appended.

Prompt: Return reported IC50; argument: `CO[C@]12C[C@@H](COC(=O)c3cncc(Br)c3)CN(C)[C@@H]1Cc1c(Cl)n(C)c3cccc2c13`
Completion: 24.2

Prompt: Return reported IC50; argument: `CO[C@]12C[C@@H](COC(=O)c3cncc(Br)c3)CN(C)[C@@H]1Cc1cn(C)c3cccc2c13`
Completion: 176
